In this section we review reported IC50 values for a set of compounds.
- target-entity: IL-17A(FLAG-Tagged): IL-17RA(His-Tagged) (Homo sapiens, UniProt Q16552, K93Q)
- Sequence (Q16552 with tags, fused parts or gaps K93Q): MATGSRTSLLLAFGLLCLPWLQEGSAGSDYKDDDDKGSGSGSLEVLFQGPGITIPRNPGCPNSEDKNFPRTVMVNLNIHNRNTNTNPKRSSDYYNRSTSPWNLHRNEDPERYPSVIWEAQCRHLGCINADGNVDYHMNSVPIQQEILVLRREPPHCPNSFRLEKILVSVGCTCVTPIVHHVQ
- method-summary: IL-17A(FLAG-Tagged): IL-17RA(His-Tagged) Binding Disruption Eu-HTRF Assay
- cond: IL-17A/IL-17RA binding disruption, simple average if tested more than once
measurement-type: IC50 (nM)

> print(dat)
                                   compound  measurement.type  readout.value
1  O=C(CC1CC(F)(F)C1)NC(c1cnn2cc([C@@H](NC(=O)c3cnn(CC4CC4)n3)C3CCC(F)(F)CC3)nc2c1)C1CC1 (single isomer, unassigned)              IC50             68
2  CC(C)n1nccc1C(=O)N[C@H](c1cn2ncc(C(NC(=O)CCC(F)(F)F)C3CC3)cc2n1)C1CCC(F)(F)CC1 (single isomer, unassigned) [Example 15]              IC50           1900
3  Cc1nonc1C(=O)N[C@H](c1cn2ncc(C(NC(=O)CCC(F)(F)F)C(C)C)cc2n1)C1CCC(F)(F)CC1 (single isomer, unassigned) [Example 546]              IC50            640
4  Cc1nocc1C(=O)N[C@H](c1cn2ncc(C(C)NC(=O)CCC(F)(F)F)cc2n1)C1CCC(F)(F)CC1 (some centres unmarked)              IC50            420
5  CC(C)(C)[C@@H](O)C(=O)NC(c1cnn2cc([C@@H](NC(=O)c3cnn(CC4CC4)n3)C3CCC(F)(F)CC3)nc2c1)C1CC1 (single isomer, unassigned)              IC50             46

----------
- target-entity: IL-17A(FLAG-Tagged): IL-17RA(His-Tagged) (Homo sapiens, UniProt Q16552, K93Q)
- method-summary: IL-17A(FLAG-Tagged): IL-17RA(His-Tagged) Binding Disruption Eu-HTRF Assay
- cond: IL-17A/IL-17RA binding disruption, simple average if tested more than once
pIC50: −log10 of the molar value.
Class Condition met: pIC50 at least 7. Class Condition not met: pIC50 below 7.

molecule	label
Cc1c(C(=O)N[C@H](c2cn3ncc(C(NC(=O)CCC(F)(F)F)C4CC4)cc3n2)C2CCC(F)(F)CC2)cnn1CCC(F)(F)F (single isomer, unassigned) [Example 53]	Condition not met
CC(C)n1nccc1C(=O)N[C@H](c1cn2ncc([C@H](NC(=O)C[C@@H](O)C(F)(F)F)C3CC3)cc2n1)C1CCC(F)(F)CC1 (relative stereo)	Condition not met
O=C(CC1CC(F)(F)C1)NC(c1cnn2cc([C@@H](NC(=O)c3cnnn3CCC(F)(F)F)C3CCC(F)(F)CC3)nc2c1)C1CC1 (single isomer, unassigned) [Example 73]	Condition not met
O=C(CCC(F)(F)F)N[C@@H](c1cnn2cc([C@@H](NC(=O)[C@@H]3CC34CCC4)C3CCC(F)(F)CC3)nc2c1)C1CC1 (relative stereo)	Condition not met
O=C(CCC(F)(F)F)N[C@@H](c1cnn2cc([C@@H](NC(=O)c3ncnn3CCCF)C3CCC(F)(F)CC3)nc2c1)C1CC1	Condition not met
CC(C)n1nnc(C(=O)N[C@H](c2cn3ncc([C@H](NC(=O)CCC(F)(F)F)C4CC4)cc3n2)C2CCC(F)(F)CC2)n1	Condition not met
O=C(CC1CC(F)(F)C1)NC(c1cnn2cc([C@@H](NC(=O)c3cnn(CCC(F)(F)F)c3)C3CCC(F)(F)CC3)nc2c1)C1CC1 (single isomer, unassigned) [Example 8]	Condition not met
Cc1c(C(=O)N[C@H](c2cn3ncc(C(NC(=O)CC4CC(F)(F)C4)C4CC4)cc3n2)C2CCC(F)(F)CC2)cnn1CCC(F)(F)F (single isomer, unassigned) [Example 51]	Condition not met
O=C(CCC(F)(F)F)N[C@@H](c1cnn2cc([C@@H](NC(=O)c3ncn(CCC(F)(F)F)n3)C3CCC(F)(F)CC3)nc2c1)C1CC1	Condition not met
O=C(CCC(F)(F)F)N[C@@H](c1cnn2cc([C@@H](NC(=O)[C@H]3C[C@H]3C(F)F)C3CCC(F)(F)CC3)nc2c1)C1CC1 (relative stereo)	Condition not met
CCC(NC(=O)CC1CC(F)(F)C1)c1cnn2cc([C@@H](NC(=O)c3nonc3C)C3CCC(F)(F)CC3)nc2c1 (single isomer, unassigned)	Condition not met
CC(C)n1nccc1C(=O)N[C@H](c1cn2ncc(C(NC(=O)CC3CC(F)(F)C3)C3(C#N)CC3)cc2n1)C1CCC(F)(F)CC1 (single isomer, unassigned) [Example 431]	Condition not met
CCOc1cc(C(=O)N[C@H](c2cn3ncc([C@H](NC(=O)CCC(F)(F)F)C4CC4)cc3n2)C2CCC(F)(F)CC2)ccn1	Condition met
O=C(CCC(F)(F)F)N[C@@H](c1cnn2cc([C@@H](NC(=O)c3conc3CC3CC3)C3CCC(F)(F)CC3)nc2c1)C1CC1	Condition met
O=C(CCC(F)(F)F)N[C@@H](c1cnn2cc([C@@H](NC(=O)c3cccc(C4CC4)c3)C3CCC(F)(F)CC3)nc2c1)C1CC1	Condition met
Cc1nonc1C(=O)N[C@H](c1cn2ncc([C@H](NC(=O)COCC(F)F)C3CC3)cc2n1)C1CCC(F)(F)CC1	Condition not met

----------
- target-entity: IL-17A(FLAG-Tagged): IL-17RA(His-Tagged) (Homo sapiens, UniProt Q16552, K93Q)
- method-summary: IL-17A(FLAG-Tagged): IL-17RA(His-Tagged) Binding Disruption Eu-HTRF Assay
- cond: IL-17A/IL-17RA binding disruption, simple average if tested more than once
measurement-type: log10 IC50 (log10 of the value in nM)

molecule	readout-value
O=C(CCC(F)(F)F)N[C@@H](c1cnn2cc([C@@H](NC(=O)c3ccncn3)C3CCC(F)(F)CC3)nc2c1)C1CC1 [Example 207]	3.26
Cc1nonc1C(=O)N[C@H](c1cn2ncc([C@H](NC(=O)C(C)CC(F)F)C3CC3)cc2n1)C1CCC(F)(F)CC1 (single isomer, unassigned) [Example 330]	2.75
O=C(CC1CC(F)(F)C1)NC(c1cnn2cc([C@@H](NC(=O)c3cnn(CC(F)(F)F)n3)C3CCC(F)(F)CC3)nc2c1)C1CC1 (stereo in doubt) [Example 28]	1.95
CC(C)n1nccc1C(=O)N[C@H](c1cn2ncc([C@@H](NC(=O)C[C@H]3CC3(F)F)C3CC3)cc2n1)C1CCC(F)(F)CC1 (single isomer, unassigned) [Example 138]	2.89
Cc1oncc1C(=O)N[C@H](c1cn2ncc([C@H](NC(=O)CCC(F)(F)F)C3CC3)cc2n1)C1CCC(F)(F)CC1 [Example 159]	2.00
O=C(CCC(F)(F)F)N[C@@H](c1cnn2cc([C@@H](NC(=O)c3cccc(OCC(F)(F)F)n3)C3CCC(F)(F)CC3)nc2c1)C1CC1 [Example 203]	2.28

----------
- target-entity: IL-17A(FLAG-Tagged): IL-17RA(His-Tagged) (Homo sapiens, UniProt Q16552, K93Q)
- method-summary: IL-17A(FLAG-Tagged): IL-17RA(His-Tagged) Binding Disruption Eu-HTRF Assay
- cond: IL-17A/IL-17RA binding disruption, simple average if tested more than once
pIC50: −log10 of the molar value.
In this section we review reported pIC50 values for a set of compounds.

compound	pIC50
O=C(CCC(F)(F)F)NC(c1cnn2cc([C@@H](NC(=O)c3ccn(CCC(F)(F)F)n3)C3CCC(F)(F)CC3)nc2c1)C1CC1 (single isomer, unassigned) [Example 21]	6.64
Cc1conc1C(=O)N[C@H](c1cn2ncc([C@H](NC(=O)CCC(F)(F)F)C3CC3)cc2n1)C1CCC(F)(F)CC1 [Example 158]	7.32
O=C(CCC(F)(F)F)N[C@@H](c1cnn2cc([C@@H](NC(=O)C3(F)CC3)C3CCC(F)(F)CC3)nc2c1)C1CC1 [Example 60]	6.41
CC(C)(C)OC[C@H](NC(=O)c1nonc1C1CC1)c1cn2ncc([C@H](NC(=O)CC3CC(F)(F)C3)C3CC3)cc2n1 [Example 319]	7.18
Cc1nonc1C(=O)N[C@H](c1cn2ncc([C@H](NC(=O)CC34CC(C3)C4)C3CC3)cc2n1)C1CCC(F)(F)CC1 [Example 249]	7.62
CCn1nccc1C(=O)N[C@H](c1cn2ncc([C@H](NC(=O)CC3CC(F)(F)C3)C3CC3)cc2n1)C1CCC(F)(F)CC1 [Example 126]	7.34
O=C(CCC(F)(F)F)N[C@@H](c1cnn2cc([C@@H](NC(=O)c3cncc(CCC(F)F)c3)C3CCC(F)(F)CC3)nc2c1)C1CC1 [Example 151]	7.17
Cc1nonc1C(=O)N[C@H](c1cn2ncc([C@H](NC(=O)CC(C)CC(F)(F)F)C3CC3)cc2n1)C1CCC(F)(F)CC1 (single isomer, unassigned) [Example 350]	6.57
O=C(CCC(F)(F)F)N[C@@H](c1cnn2cc([C@@H](NC(=O)c3ccnn3C(F)F)C3CCC(F)(F)CC3)nc2c1)C1CC1 [Example 67]	7.09
O=C(CC1CC(F)(F)C1)N[C@@H](c1cnn2cc([C@@H](NC(=O)c3nocc3C3CC3)C3CCC(F)(F)CC3)nc2c1)C1CC1 [Example 403]	7.20
Cc1nonc1C(=O)N[C@H](c1cn2ncc([C@H](NC(=O)CCCC#N)C3CC3)cc2n1)C1CCC(F)(F)CC1 [Example 351]	5.59
N#CC12CC(Cn3cc(C(=O)N[C@H](c4cn5ncc([C@H](NC(=O)CCC(F)(F)F)C6CC6)cc5n4)C4CCC(F)(F)CC4)nn3)(C1)C2 [Example 147]	5.77
C[C@@H](n1ncnc1C(=O)N[C@H](c1cn2ncc([C@H](NC(=O)CCC(F)(F)F)C3CC3)cc2n1)C1CCC(F)(F)CC1)C(F)(F)F [Example 478]	6.35
O=C(CCC(F)(F)F)N[C@@H](c1cnn2cc([C@@H](NC(=O)c3ncnn3CCC(F)(F)F)C3CCC(F)(F)CC3)nc2c1)C1CC1 [Example 38]	7.11
O=C(CCC(F)(F)F)N[C@@H](c1cnn2cc([C@@H](NC(=O)c3ncnn3CCC(F)F)C3CCC(F)(F)CC3)nc2c1)C1CC1 [Example 46]	6.89
CC(C)n1ncnc1C(=O)N[C@H](c1cn2ncc([C@H](NC(=O)CCC(F)(F)F)C3CC3)cc2n1)C1CCC(F)(F)CC1 [Example 483]	7.12
O=C(CC1CC(F)(F)C1)NC(c1cnn2cc([C@@H](NC(=O)c3cnn(CCC(F)(F)F)c3)C3CCC(F)(F)CC3)nc2c1)C1CC1 (single isomer, unassigned) [Example 9]	5.08
CC(C)n1nccc1C(=O)N[C@H](c1cn2ncc([C@H](NC(=O)CO[C@H](C)C(F)(F)F)C3CC3)cc2n1)C1CCC(F)(F)CC1 (single isomer, unassigned) [Example 311]	6.68
O=C(CC1CC(F)(F)C1)N[C@@H](c1cnn2cc([C@@H](NC(=O)c3conc3COC(F)F)C3CCC(F)(F)CC3)nc2c1)C1CC1 [Example 294]	7.07
Cc1nonc1C(=O)N[C@H](c1cn2ncc([C@H](NC(=O)C(F)CC3CC3)C3CC3)cc2n1)C1CCC(F)(F)CC1 (single isomer, unassigned) [Example 344]	7.28
CC(F)(F)CCn1ncnc1C(=O)N[C@H](c1cn2ncc([C@H](NC(=O)CCC(F)(F)F)C3CC3)cc2n1)C1CCC(F)(F)CC1 [Example 476]	6.89
Cc1nonc1C(=O)N[C@H](c1cn2ncc([C@H](NC(=O)C(F)C3CC3)C3CC3)cc2n1)C1CCC(F)(F)CC1 (single isomer, unassigned) [Example 332]	5.82
O=C(CCC(F)(F)F)NC(c1cnn2cc([C@@H](NC(=O)c3cnnn3CCC(F)(F)F)C3CCC(F)(F)CC3)nc2c1)C1CC1 (single isomer, unassigned) [Example 71]	7.00
